Values were extracted from BindingDB's records for doi:10.1016/j.chembiol.2006.12.006.

Listing: IC50 of selected molecules
system: Beta-hexosaminidase subunit alpha (Homo sapiens, UniProt P06865)
Sequence (P06865 whole entry): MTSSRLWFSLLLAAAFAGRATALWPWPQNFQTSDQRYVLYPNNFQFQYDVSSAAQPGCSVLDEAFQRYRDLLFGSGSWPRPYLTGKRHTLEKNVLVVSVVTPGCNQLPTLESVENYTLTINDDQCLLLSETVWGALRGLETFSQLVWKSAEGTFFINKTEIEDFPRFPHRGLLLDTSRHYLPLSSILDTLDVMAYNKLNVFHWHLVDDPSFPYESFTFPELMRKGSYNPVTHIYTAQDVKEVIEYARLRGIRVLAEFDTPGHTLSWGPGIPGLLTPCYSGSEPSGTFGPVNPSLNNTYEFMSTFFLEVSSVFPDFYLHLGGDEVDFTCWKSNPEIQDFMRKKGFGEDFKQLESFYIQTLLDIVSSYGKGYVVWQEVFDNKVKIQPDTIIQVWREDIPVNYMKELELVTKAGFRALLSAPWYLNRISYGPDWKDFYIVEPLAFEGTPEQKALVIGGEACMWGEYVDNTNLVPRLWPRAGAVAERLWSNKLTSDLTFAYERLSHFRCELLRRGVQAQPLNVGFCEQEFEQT
experimentNotes: Enzyme Inhibition Assay
conditions: 25 °C
Please state the value followed by its unit.

Examples from the recorded data:
CC(O)CCN1C(=O)c2cccc3cccc(c23)C1=O (stereo not given) : 31 µM
O=C1c2cccc3cccc(c23)C(=O)N1CC1CCCO1 (stereo not given) : 138 µM
O=C1NC(=O)c2cccc3cccc1c23 : 18 µM
O=C1c2cccc3cccc(c23)C(=O)N1CCCO : 16 µM

Exam item: Look up Beta-hexosaminidase subunit alpha (Homo sapiens, UniProt P06865) data: IC50 of O=C1c2cccc3cccc(c23)C(=O)N1CCCc1ccccn1 , then report it.
Marked response: 108 µM
